- measurement.protocol: Cell Viability - LYMP2-016 (AID 984);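 note: cells exposed to compound for 24 hours at 37 °C; nearly all actives have a fitted effect of over 55% in size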; note: potency is the fitted concentration of half-maximal effect
- applied.conditions: LYMP2-016 lymphoblastoid cell viability, qHTS; series mostly up to 92.2 µM
Inconclusive results are not listed. Active and inactive are the calls of the source. Calls come from the whole dose curve; as a rule, active = well fitted cell-killing curve with a large enough effect; inconclusive = small, poorly fitted or top-dose-only effect; inactive = flat fitted curve, though single readings scatter.
attribute.measured: Potency

compound	Potency
O=C=Nc1ccc(Cc2ccc(N=C=O)cc2)cc1	inactive
CCC(C)Nc1ccc(NC(C)CC)cc1 (centres undefined)	5.01 µM (active)
Cc1cc(O)c(C(C)(C)C)cc1Sc1cc(C(C)(C)C)c(O)cc1C	50.1 µM (active)
O=C(/C=C/c1ccc(O)c(O)c1)OC1C[C@](O)(C(=O)O)C[C@@H](O)[C@H]1O (some centres undefined)	inactive
Cc1cc(Nc2ccc(O)cc2)ccc1N	50.1 µM (active)
c1ccc2c(c1)-c1cccc3c1c-2cc1ccccc13	inactive
CN(C)c1ccc(C2(c3ccc(N(C)C)cc3)OC(=O)c3cc(N(C)C)ccc32)cc1	inactive
c1ccc2c(c1)ccc1cc3c(ccc4ccccc43)cc12	inactive
O=C(OCC(COC(=O)c1ccccc1)(COC(=O)c1ccccc1)COC(=O)c1ccccc1)c1ccccc1	inactive
O=C1OC2(c3cc(Br)c(O)c(Br)c3Oc3c2cc(Br)c(O)c3Br)c2c(Cl)c(Cl)c(Cl)c(Cl)c21	inactive

Now take the following compound into account.
Recorded Potency of `Cc1cccc(O)c1C` , please. inactive

---

- measurement.protocol: qHTS assay for small molecule activators of the nuclear factor-kappa B (NF-kB) signaling pathway (AID 651749); note: % of control where 0% means no effect
- applied.conditions: NF-kB-bla ME-180 cells, beta-lactamase FRET ratio, 16 h; hits give high values
Results filed as inconclusive are left out.
Below: a set of entries, each annotated with reported activation.
The answer is to be given in %; state only the numeric part.

In the examples that follow, each entry is paired with its recorded activation.
compound.structure.string	unit.annotation	activation
CC(=O)Nc1ccc(C(=O)CCl)cc1	%	-3.62
CC1(C)CCC(C)(C)c2cc(C(=O)Nc3ccc(C(=O)O)cc3)ccc21	%	1.76
Cc1ccc(S(=O)(=O)Oc2ccc(N=Nc3ccc(-c4ccc(N=Nc5c(O)ccc6cc(S(=O)(=O)O)cc(S(=O)(=O)O)c56)c(C)c4)cc3C)cc2)cc1	%	-0.0057
O=Cc1ccc(Cl)c(Cl)c1	%	-0.954
C=C(C)c1ccccc1	%	1.11

Recorded activation of `CCCCCC/C(C=O)=C\c1ccccc1` , please. -0.556

---

- system.under.test: Cytochrome P450 3A4 (Homo sapiens)
- measurement.protocol: qHTS Assay for Inhibitors and Substrates of Cytochrome P450 3A4 (AID 884); note: potency is the fitted concentration of half-maximal effect; nearly all actives have a fitted effect of over 50% in size
- applied.conditions: recombinant CYP3A4, Luciferin-PPXE luminescence; series mostly up to 57.1 µM
Inconclusive results are not listed. The source made the active and inactive calls. Calls follow the shape of the dose curve; as a rule, active = well fitted inhibition curve with a large enough effect; inconclusive = small, poorly fitted or top-dose-only effect; inactive = no such curve, though single readings can be large or run the other way.
Below: a set of entries, each annotated with reported Potency.

In the examples that follow, each entry is paired with its recorded Potency.
compound	data.value
CNC(=O)[C@H](C)[C@H]1C[C@]1(C)[C@H](NC(=O)OCc1ccccc1)c1ccccc1	2 µM (active)
CCCc1cc2c(n1Cc1cc(F)cc(F)c1)C(C)C1CN(C(=O)c3ccccc3)C(C)(C(=O)OC)C21 (stereo not drawn)	3.16 µM (active)
Cc1cc(Nc2ccc(O)cc2)ccc1N	15.8 µM (active)
COc1ccc(NC(=O)/C=C\c2ccc(Cl)cc2)cc1	25.1 µM (active)
CCC[C@@H]1C[C@@]1(CCC)C(NC(=O)c1cccs1)c1ccc(Cl)cc1 (stereo partly drawn)	6.31 µM (active)
CC1(C)C(=O)C(c2ccccc2)=C2CN3C(=O)N(CCc4ccccc4)C(=O)C3(Cc3ccc(F)cc3)C=C21 (stereo not drawn)	3.16 µM (active)
COC(=O)[C@@]1(Cc2ccc(F)cc2)[C@H]2c3cc(C(=O)N4CCCC4)n(Cc4ccc(Cl)c(C(F)(F)F)c4)c3C[C@H]2CN1C(=O)c1ccccc1	2.51 µM (active)

Now take the following compound into account.
Recorded Potency of `COC(=O)[C@@]1(Cc2ccc(OC)cc2)[C@@H]2[C@@H](CC(=O)[C@H]2CC(=O)C(=O)N2CCCC2)CN1C(=O)c1ccccc1` , please. 0.794 µM (active)
